# assay target: human ACSS2 (Homo sapiens, UniProt Q9NR19)
# Construct: The cytosolic fraction of BT474 cells was used as a source of the ACSS2 enzyme; endogenous in cells; host or cells: BT474 cells (cytosolic fraction)
# Sequence (Q9NR19 whole entry): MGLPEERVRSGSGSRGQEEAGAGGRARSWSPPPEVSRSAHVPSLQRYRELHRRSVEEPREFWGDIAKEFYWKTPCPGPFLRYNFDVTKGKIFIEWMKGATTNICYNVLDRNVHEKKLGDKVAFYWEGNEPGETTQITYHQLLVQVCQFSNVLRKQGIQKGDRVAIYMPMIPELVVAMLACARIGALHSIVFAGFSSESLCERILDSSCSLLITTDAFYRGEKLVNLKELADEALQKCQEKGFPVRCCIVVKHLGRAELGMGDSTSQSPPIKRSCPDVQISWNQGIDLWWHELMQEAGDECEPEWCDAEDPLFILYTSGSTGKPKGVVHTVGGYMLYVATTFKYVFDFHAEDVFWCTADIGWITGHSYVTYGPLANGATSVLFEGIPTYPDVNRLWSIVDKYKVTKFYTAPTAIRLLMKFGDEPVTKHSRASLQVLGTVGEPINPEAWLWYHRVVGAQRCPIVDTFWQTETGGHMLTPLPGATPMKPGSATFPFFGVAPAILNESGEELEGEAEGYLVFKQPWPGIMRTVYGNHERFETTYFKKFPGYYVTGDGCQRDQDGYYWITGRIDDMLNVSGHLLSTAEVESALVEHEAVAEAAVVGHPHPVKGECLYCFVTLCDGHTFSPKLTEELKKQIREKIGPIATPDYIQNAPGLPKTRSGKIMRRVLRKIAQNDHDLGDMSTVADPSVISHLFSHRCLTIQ
# assay: ACSS2 enzyme assay (acetyl-CoA formation, LC-MS/MS)
# Format: biochemical
# condition: cytosolic fraction of BT474 cells as ACSS2 source; 100 μM acetate, CoA and ATP; 2 h at 25° C.; read-out: Enzyme Activity (IC50 range)
measurement label: IC50

These recorded examples may help you get a feel for the data.
compound | IC50
CCC(O)CNC(=O)Nc1ccc2nc(-c3ccncc3)c(-c3ccncc3)cc2c1 (stereo not drawn) | ≤ 1000 nM
CCC(O)CNC(=O)Nc1ccc2nc(C)c(-c3ccccc3)c(NC(C)=O)c2c1 (stereo not drawn) | < 100 nM
CCCCNC(=O)Nc1ccc2nc(-c3ccccc3)c(-c3ccccc3OC)cc2c1 | < 100 nM
CCC(F)(F)CNC(=O)Nc1ccc2nc(C)c(-c3ccccc3)cc2c1 | < 100 nM
CCC(O)CNC(=O)Nc1ccc2nc(-c3ccc(-c4ccccc4)cc3)c(-c3ccccc3)cc2c1 (stereo not drawn) | ≤ 10000 nM

Now look at this one.
Query string: Using known records, supply IC50 for CCC(O)CCC(=O)Nc1ccc2nc(-c3ccccc3F)c(-c3ccccc3F)cc2c1 (stereo not drawn)
Result string: < 100 nM

---

# assay target: human ACSS2 (Homo sapiens, UniProt Q9NR19)
# Construct: The cytosolic fraction of BT474 cells was used as a source of the ACSS2 enzyme; endogenous in cells
# assay: ACSS2 enzyme assay (acetyl-CoA formation, LC-MS/MS)
# condition: cytosolic fraction of BT474 cells as ACSS2 source; 100 μM acetate, CoA and ATP; 2 h at 25° C.; read-out: Enzyme Activity (IC50 range)
Entries annotated with measured IC50

These recorded examples may help you get a feel for the data.
compound | IC50
O=C(Nc1ccc2nc(-c3ccccc3)c(-c3ccccc3)cc2c1)NC1CCCCC1 | ≤ 1000 nM
CCC(=O)CCC(=O)Nc1ccc2nc(-c3ccccc3)c(-c3ccccc3)cc2c1 | < 100 nM
CCC(O)CNC(=O)Nc1ccc2nc(-c3ccccc3)c(-c3ccccc3)c(C#N)c2c1 (centres unmarked) | < 100 nM
CCC(O)CCC(=O)Nc1ccc2nc(C)c(-c3ccccc3)cc2c1 (centres unmarked) | < 100 nM
CCC(O)CNC(=O)Nc1ccc2nc(C)c(-c3ccccc3F)cc2c1 (centres unmarked) | < 100 nM
CCC(O)CNC(=O)Nc1ccc2nc(C)c(-c3ccccc3)cc2c1 (centres unmarked) | < 100 nM

Query string: For human ACSS2 (Homo sapiens, UniProt Q9NR19), give IC50 of the listed compound: CC[C@@H](O)CNC(=O)Nc1ccc2nc(-c3ccccc3)c(-c3ccccc3)c(C)c2c1
Result string: < 100 nM

Query string: For human ACSS2 (Homo sapiens, UniProt Q9NR19), give IC50 of the listed compound: CCCCNC(=O)Nc1ccc2nc(-c3ccccc3)c(-c3ccccc3)cc2c1-c1cccnc1O
Result string: < 100 nM

Query string: For human ACSS2 (Homo sapiens, UniProt Q9NR19), give IC50 of the listed compound: CCC(O)CCC(=O)Nc1ccc2nc(-c3ccccc3)c(-c3ccccc3)cc2c1 (centres unmarked)
Result string: < 100 nM
